Tested on: M. mycetomatis genome strain MM55
test-name: CLSI M38-A2 based in vitro susceptibility screening (XTT or resazurin), growth at fixed concentration
Assay type: cell-based, Madurella mycetomatis
condition-description: Madurella mycetomatis, 25 uM, replicate A, M. mycetomatis MM55; read-out: Percentage survival at 25um, 25 um A
Documented activity at 25 µM across a set of compounds
I only need the number, in %, no unit after it.

A selection of reference data follows.
1) C[C@H]1CC[C@@]2(O)C(C)(C)[C@@H]3CC[C@@]2(C)[C@H]1C3 [MMV1578556] ... 69.5
2) CCC(C)(C)c1ccc(CC(C)CN2C[C@@H](C)O[C@@H](C)C2)cc1 (stereo partly drawn) [MMV1634358, Amorolfine, reference compound] ... -0.194
3) Fc1ccc(-n2cc(Cn3c(-c4cccc(F)c4)nc4ccccc43)nn2)cc1 [MMV1580850] ... 55.7
4) Clc1ccc(COC(Cn2ccnc2)c2ccc(Cl)cc2Cl)c(Cl)c1 (stereo not drawn) [MMV002722] ... 0.653
5) CCCCCCCc1[nH]c2ccccc2c(=O)c1O [MMV1578561] ... 76.9

Param item: O=C(CCCC(F)(F)F)N1CCC(c2nc(-c3nccs3)no2)CC1 [MMV1582491] ; param system: M. mycetomatis genome strain MM55; output activity at 25 µM: 68.8

* * *

Documented log10 of MIC across a set of molecules
System: ten different M. mycetomatis isolates
test-name: MIC / MIC50 determination (XTT) in ten M. mycetomatis isolates
Type: cell-based, Madurella mycetomatis
condition-description: Madurella mycetomatis; isolate So1; read-out: MIC So1
Plainly stated, the numbers are log10 of MIC given in µM.

1. Oc1c(C(Nc2nc3ccccc3s2)c2ccc(OC(F)F)cc2)ccc2cccnc12 (stereo not shown) ... 0.60
2. COC(=O)Nc1nc2c(C)cccc2[nH]1 ... 0.60
3. CCC(C)(C)c1ccc(CC(C)CN2C[C@@H](C)O[C@@H](C)C2)cc1 (stereo partly shown) [MMV1634358, Amorolfine, reference compound] ... 0.30
4. COc1cc(C)c2c(Oc3cccc(C(F)(F)F)c3)c(OC)cc(NC(C)CCCN)c2n1 (stereo not shown) [MMV000043, Tafenoquine, reference compound] ... 1.20
5. Clc1ccc(COC(Cn2ccnc2)c2ccc(Cl)cc2Cl)c(Cl)c1 (stereo not shown) ... -0.90
6. O[C@@](Cn1cnnn1)(c1ccc(F)cc1F)C(F)(F)c1ccc(-c2ccc(OCC(F)(F)F)cc2)cn1 [MMV1634386, Oteseconazole, reference compound] ... 0.00
7. COC(=O)Nc1nc2ccc(Sc3ccccc3)cc2[nH]1 ... 0.30

For `COC(=O)Nc1nc2ccccc2[nH]1` the molecule record lists log10 of MIC as -0.30

* * *

Tested on: ten different M. mycetomatis isolates
test-name: MIC / MIC50 determination (XTT) in ten M. mycetomatis isolates
Format: cell-based, Madurella mycetomatis
condition-description: Madurella mycetomatis; isolate i11; read-out: MIC i11
Sorting guide: entries reporting MIC beneath 4 µM go in the T pile, the rest go in the F pile.

Below, 6 compounds whose answers are already recorded.
1. O[C@@](Cn1cnnn1)(c1ccc(F)cc1F)C(F)(F)c1ccc(-c2ccc(OCC(F)(F)F)cc2)cn1 [MMV1634386, Oteseconazole, reference compound] ... F
2. COC(=O)Nc1nc2ccc(Sc3ccccc3)cc2[nH]1 [MMV003143, Fenbendazole] ... T
3. CCN(CC)CCn1c(=N)n(CC(O)COc2ccc(Cl)cc2Cl)c2ccccc21 (centres unmarked) [MMV000725] ... F
4. COC(=O)Nc1nc2ccccc2[nH]1 [MMV344625, Carbendazim] ... T
5. CCC(C)(C)c1ccc(CC(C)CN2C[C@@H](C)O[C@@H](C)C2)cc1 (some centres unmarked) [MMV1634358, Amorolfine, reference compound] ... F
6. CCCCC(CC)CNC(=N)NC(=N)NCCCCCCNC(=N)NC(=N)NCC(CC)CCCC (centres unmarked) [MMV396785, Alexidine, reference compound] ... T

Exercise: Does O=S(=O)(Nc1ccc(-n2cccc2)cc1)c1ccc(Cl)c(Cl)c1 [MMV1505642] have MIC strictly under 4 µM?
Solution: F

Exercise: Does Clc1cc(Cl)c2c(c1)CCc1ccccc1C2n1ccnc1 (centres unmarked) [MMV1634492, Eberconazole, reference compound] have MIC strictly under 4 µM?
Solution: T

Exercise: Does N#C/C(=C1/SC[C@@H](c2ccc(Cl)cc2Cl)S1)n1ccnc1 [MMV1782224, Luliconazole, reference compound] have MIC strictly under 4 µM?
Solution: T

Exercise: Does Oc1c(C(Nc2nc3ccccc3s2)c2ccc(OC(F)F)cc2)ccc2cccnc12 (centres unmarked) [MMV019724] have MIC strictly under 4 µM?
Solution: F

Exercise: Does Clc1ccc(COC(Cn2ccnc2)c2ccc(Cl)cc2Cl)c(Cl)c1 (centres unmarked) [MMV002722] have MIC strictly under 4 µM?
Solution: T

* * *

Documented activity at 100 µM across a set of molecules
Tested on: M. mycetomatis genome strain MM55
test-name: CLSI M38-A2 based in vitro susceptibility screening (XTT or resazurin), growth at fixed concentration
Assay type: cell-based, Madurella mycetomatis
condition-description: Madurella mycetomatis, 100 uM, replicate 2, M. mycetomatis MM55; read-out: Percentage survival at 100um, 100 uM A (second replicate column)
I only need the number, in %, no unit after it.

A selection of reference data follows.
1. COc1cc(Cc2cnc(N)nc2N)cc(OC)c1OC ... 74.4
2. COC(=O)Nc1nc2ccccc2[nH]1 ... 3.66
3. CC1(C)[C@H](C(=O)O)N2C(=O)C[C@H]2S1(=O)=O ... 112

Here is another molecule to look at.
For `NS(=O)(=O)c1ccc(NC(=O)NC(c2ccccc2)c2ccccc2)cc1` the molecule record lists activity at 100 µM as 98.7

* * *

System: M. mycetomatis MM55
test-name: IC50 determination, 2-fold dilution series 16 to 0.03125 μM
Assay type: cell-based, Madurella mycetomatis
condition-description: M. mycetomatis
readout-type: Drug static or cidal

1) N#C/C(=C1/SC[C@@H](c2ccc(Cl)cc2Cl)S1)n1ccnc1 [MMV1782224, Luliconazole, reference compound] ... Cidal
2) CC(C)=CCC/C(C)=C/CNCCNC1C2CC3CC(C2)CC1C3 (centres unmarked) ... Cidal
3) CCCCC(CC)CNC(=N)NC(=N)NCCCCCCNC(=N)NC(=N)NCC(CC)CCCC (centres unmarked) [MMV396785, Alexidine, reference compound] ... Static
4) Nc1nnnn1CCOc1c2[nH]c3ccc(Cl)cc3c2cc2c1[nH]c1ccc(Cl)cc12 ... Cidal
5) O=S(=O)(Nc1cccc2cccnc12)c1ccccc1 ... Static
6) Clc1ccc(COC(Cn2ccnc2)c2ccc(Cl)cc2Cl)c(Cl)c1 (centres unmarked) ... Cidal
7) O=S(=O)(Nc1ccc(-n2cccc2)cc1)c1ccc(Cl)c(Cl)c1 ... Cidal

Here is another compound to look at.
For `O=C(/C(=C/c1ccc(Cl)cc1Cl)n1ccnc1)c1ccc(Cl)cc1` the compound record lists Drug static or cidal as Static

* * *

Tested on: M. mycetomatis genome strain MM55
test-name: CLSI M38-A2 based in vitro susceptibility screening (XTT or resazurin), growth at fixed concentration
Type: cell-based, Madurella mycetomatis
condition-description: Madurella mycetomatis, read-out: Percentage survival at 25um, 25 uM mean
readout-type: activity at 25 µM (%)
I only need the number, in %, no unit after it.

A selection of reference data follows.
1. NS(=O)(=O)c1ccc(NC(=O)NC(c2ccccc2)c2ccccc2)cc1 [MMV1579776] ... 94.2
2. [N-]=[N+]=N[C@H]1C[C@H](n2ccc(=O)[nH]c2=O)O[C@@H]1CO [MMV1593520] ... 100
3. CCN(CC)CCCC(C)Nc1ccnc2cc(Cl)ccc12 (centres unmarked) [MMV000008] ... 80.3
4. NC1(C(=O)O)CCP(=O)(O)CC1 (centres unmarked) [MMV1593538] ... 64

Here is another molecule to look at.
Param item: O=C(NC12CC3CC(CC(C3)C1)C2)c1cc2ccccc2[nH]1 [MMV1578577] ; param system: M. mycetomatis genome strain MM55; output activity at 25 µM: 74.2

* * *

System: M. mycetomatis genome strain MM55
test-name: CLSI M38-A2 based in vitro susceptibility screening (XTT or resazurin), growth at fixed concentration
Assay type: cell-based, Madurella mycetomatis
condition-description: Madurella mycetomatis, 25 uM, replicate A, MM55; read-out: Percentage survival at 25um, 25 um A
readout-type: activity at 25 µM (%)
I only need the number, in %, no unit after it.

For `CCN1CCN(Cc2nc3ccc([N+](=O)[O-])cc3c(=O)n2-c2ccccc2F)CC1` the molecule record lists activity at 25 µM as 83

For `COc1cc(NS(=O)(=O)c2ccc(C)cc2)c2ncccc2c1` the molecule record lists activity at 25 µM as 6.32

For CCCC1(C2CC2)c2cc(Cl)ccc2NC(=O)N1C (centres unmarked) the molecule record lists activity at 25 µM as 67.5

For `N[C@H]1CCC[C@H]1C(=O)O` the molecule record lists activity at 25 µM as 98.3

For `O=C(O)COc1cccc2c1CC[C@](O)(COC(=O)N(c1ccccc1)c1ccccc1)C2` the molecule record lists activity at 25 µM as 92.5

For `CC[C@@]1(O)C(=O)OCc2c1cc1n(c2=O)Cc2cc3c([N+](=O)[O-])cccc3nc2-1` the molecule record lists activity at 25 µM as 95.3

For `CCCCN1C[C@H](O)[C@@H](O)[C@H](O)[C@H]1CO` the molecule record lists activity at 25 µM as 96.4

For `CN(C)CCCNC(=O)c1ccc(-c2cc(O)c3ncccc3c2)cc1` the molecule record lists activity at 25 µM as 72

For `Cc1c(F)cccc1NC(=O)Nc1ccc(Cl)c(S(=O)(=O)[C@H]2CCCNC2)c1O` the molecule record lists activity at 25 µM as 82

For `COCCn1cnc2c(=O)[nH]c(Nc3ccccc3)nc21` the molecule record lists activity at 25 µM as 90
